B1: RAB22A (parent)
chain: FVEDSFDPNINPTIGASFMTKTVQ

variants of: B1; assay: protein stability index of a GFP-peptide fusion (GPS, HEK-293T) (PSI 1-6); higher = more stable; settings: c terminus: a fixed tail appended;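 note: lentivirally expressed fusions sorted by FACS into six bins by GFP to DsRed ratio, PSI derived from sequencing read proportions per bin multiplied by bin number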
met means recorded protein stability index is 2 or above; not met means it is below 2.

The examples below pair each entry with its known result.
>  <biosequence>
FVEDSFDPNINPTIGASFRTKTVQ [M19R]

>  <label class>
met

$$$$
>  <biosequence>
FVEDSFDPNDNPTIGASFMTKTVQ [I10D]

>  <label class>
met

$$$$
>  <biosequence>
FVEDSDDPNINPTIGASFMTKTVQ [F6D]

>  <label class>
met

$$$$
>  <biosequence>
FEEDSFDPNINPTIGASFMTKTVQ [V2E]

>  <label class>
met

$$$$
>  <biosequence>
FVEDSFDPNINPTIGASFMTFTVQ [K21F]

>  <label class>
met

$$$$

Problem: # bool: protein stability index of FVEDSFDPNINPTIGESFMTKTVQ [A16E] >= 2
Result: met

Problem: # bool: protein stability index of FHEDSFDPNINPTIGASFMTKTVQ [V2H] >= 2
Result: met

Problem: # bool: protein stability index of FVEDSFDPNINPTIKASFMTKTVQ [G15K] >= 2
Result: met

Problem: # bool: protein stability index of FVEDSFDPNINPTIGASFMTETVQ [K21E] >= 2
Result: met

Problem: # bool: protein stability index of FVEDSFDPNINPTIGPSFMTKTVQ [A16P] >= 2
Result: met

Problem: # bool: protein stability index of FVEDSFDPNINPTIIASFMTKTVQ [G15I] >= 2
Result: not met

Problem: # bool: protein stability index of FVLDSFDPNINPTIGASFMTKTVQ [E3L] >= 2
Result: not met

Problem: # bool: protein stability index of FVEDSFDPNINPAIGASFMTKTVQ [T13A] >= 2
Result: met

Problem: # bool: protein stability index of FVEDSFDPNINPTIGAEFMTKTVQ [S17E] >= 2
Result: met
